Reference source for all entries: PubChem BioAssay AID1963448

test system: 616215-338-R-J1-PDC complex spheroid growth, % test/control; assay: Anticancer human tumor 616215-338-R-J1-PDC patient-derived colon adenocarcinoma cell line growth inhibition [Asc]; details: second compound 1 µM; first compound 0.0316 µM; stronger effect = lower value
readout.label: viability, T/C (%)
Give the quantity in %, number only.

Some entries whose results are on file:
COc1c(OCCCN2CCOCC2)ccc2c3n(c(=NC(=O)c4cnc(N)nc4)nc12)CCN3 + CNC(C)C(=O)NC1CN(S(=O)(=O)c2cccc(S(=O)(=O)N3CCC4CCC(C(=O)NC(c5ccccc5)c5ccccc5)N4C(=O)C(NC(=O)C(C)NC)C3)c2)CCC2CCC(C(=O)NC(c3ccccc3)c3ccccc3)N2C1=O :: 52.8
C=C(F)C(=O)N1CCN(c2nc(OCC3CCCN3C)nc3c2CCN(c2cccc4cccc(Cl)c24)C3)CC1CC#N (stereo not drawn) + Cc1c(S(C)(=O)=O)c(-c2cc(F)cc(N3CCN(c4ccc(NS(=O)(=O)c5ccc(NC(CCN6CCC(C(=O)OCCCP(=O)(O)O)CC6)CSc6ccccc6)c(S(=O)(=O)C(F)(F)F)c5)cc4)CC3)c2)c(-c2ccc(Cl)cc2)n1C(C)C :: 65

Form field viability, T/C for item O=C(c1cc(Cc2n[nH]c(=O)c3ccccc23)ccc1F)N1CCN(C(=O)C2CC2)CC1 + CNC(C)C(=O)NC1CN(S(=O)(=O)c2cccc(S(=O)(=O)N3CCC4CCC(C(=O)NC(c5ccccc5)c5ccccc5)N4C(=O)C(NC(=O)C(C)NC)C3)c2)CCC2CCC(C(=O)NC(c3ccccc3)c3ccccc3)N2C1=O on 616215-338-R-J1-PDC complex spheroid growth, % test/control: 102

* * *

tested on: 616215-338-R-J1-PDC complex spheroid growth, % test/control; experiment: Anticancer human tumor 616215-338-R-J1-PDC cell line growth inhibition [Asc]; conditions: second compound 1 µM; first compound 10 µM; active = viability on the fitted dose curve at most 10% of control; inactive = the rest;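 also: spheroids exposed to agents for seven days before readout; 100% = DMSO vehicle control viability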
Lab note: assign the record to one of yes (1) (active), no (0) (inactive)

C#Cc1c(F)ccc2cc(O)cc(-c3ncc4c(N5CC6CCC(C5)N6)nc(OCC56CCCN5CC(F)C6)nc4c3F)c12 (configuration not stated) + Cc1c(S(C)(=O)=O)c(-c2cc(F)cc(N3CCN(c4ccc(NS(=O)(=O)c5ccc(NC(CCN6CCC(C(=O)OCCCP(=O)(O)O)CC6)CSc6ccccc6)c(S(=O)(=O)C(F)(F)F)c5)cc4)CC3)c2)c(-c2ccc(Cl)cc2)n1C(C)C :: no (0)

Could you now consider this next molecule?
// outcome(item) with item = C#Cc1c(F)ccc2cc(O)cc(-c3ncc4c(N5CC6CCC(C5)N6)nc(OCC56CCCN5CC(F)C6)nc4c3F)c12 (configuration not stated) + CNC(C)C(=O)NC1CN(S(=O)(=O)c2cccc(S(=O)(=O)N3CCC4CCC(C(=O)NC(c5ccccc5)c5ccccc5)N4C(=O)C(NC(=O)C(C)NC)C3)c2)CCC2CCC(C(=O)NC(c3ccccc3)c3ccccc3)N2C1=O yes (1)

* * *

system: 616215-338-R-J1-PDC complex spheroid growth, % test/control; assay: Anticancer human tumor 616215-338-R-J1-PDC cell line growth inhibition [Asc]; details: second compound 0.03 µM; first compound 1 µM; active means viability on the fitted dose curve at most 10% of control; inactive means the rest;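 also: spheroids exposed to agents for seven days before readout; 100% = DMSO vehicle control viability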
Choose the fitting class; nothing outside active, inactive is accepted.

O=C(c1ccc(F)c(F)c1Nc1ccc(I)cc1F)N1CC(O)([C@@H]2CCCCN2)C1 + CCN1C(C(=O)NC23CCC(C(=O)O)(CC2)CC3)C(c2cccc(Cl)c2F)C2(C(=O)Nc3cc(Cl)ccc32)C12CCCCC2 :: active

What classification did CNC(C)C(=O)NC1CN(S(=O)(=O)c2cccc(S(=O)(=O)N3CCC4CCC(C(=O)NC(c5ccccc5)c5ccccc5)N4C(=O)C(NC(=O)C(C)NC)C3)c2)CCC2CCC(C(=O)NC(c3ccccc3)c3ccccc3)N2C1=O (centres undefined) + CCN1C(C(=O)NC23CCC(C(=O)O)(CC2)CC3)C(c2cccc(Cl)c2F)C2(C(=O)Nc3cc(Cl)ccc32)C12CCCCC2 end up with in this test? inactive

Recorded call for C#Cc1c(F)ccc2cc(O)cc(-c3ncc4c(N5CC6CCC(C5)N6)nc(OCC56CCCN5CC(F)C6)nc4c3F)c12 (centres undefined) + CCN1C(C(=O)NC23CCC(C(=O)O)(CC2)CC3)C(c2cccc(Cl)c2F)C2(C(=O)Nc3cc(Cl)ccc32)C12CCCCC2 ? inactive

Called result for C=CC(=O)N1CCN(c2nc(=O)n(-c3c(C)ccnc3C(C)C)c3nc(-c4c(O)cccc4F)c(F)cc23)C(C)C1 (centres undefined) + CCN1C(C(=O)NC23CCC(C(=O)O)(CC2)CC3)C(c2cccc(Cl)c2F)C2(C(=O)Nc3cc(Cl)ccc32)C12CCCCC2 inactive
